Test Details: small-molecule microarray binders of probe aNog, primary screen, biochemical, biotinylated probe, 635/667 nm fluorescence (AID 1115);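 note: probe is biotinylated aNog protein used at 0.15 µg/mL for 1 h at 4 C; z-score combines 667 nm fluorescence of each spot with its signal to noise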
Test Conditions: higher = more signal
Each entry below carries its recorded composite z-score.
Attribute Measured: composite z-score

C=CC[C@@]1(C(=O)N2CCOCC2)N=C(c2ccc(OCCCO)cc2)O[C@@H]1c1ccccc1; 0.34
CO[C@H]1O[C@H](CO)[C@@H](OC(=O)Nc2ccc3c(c2)OCO3)[C@H](OC(=O)Nc2ccccc2)[C@@H]1OC(=O)Nc1ccccc1; 0.953
O=C(NCc1ccccc1)c1ccc(Br)cc1[N+](=O)[O-]; -0.318
C=C(CCCC)/C(=C/C[C@@H](OC(=O)c1ccncc1)c1cccc(OCCO)c1)c1cc(C(=O)OC)ccc1OC; -0.452
C[C@@H]1NC(=O)[C@H](Cc2ccccc2)NC(=O)[C@@]23C(=O)N[C@@H](Cc4ccccc4)C2[C@H](C)[C@@]2(C)O[C@H]2C3/C=C/C/C=C\CNC1=O (stereo partly drawn); -0.238
O=C(CS)NCCCCCCNC(=O)[C@@H]1C[C@@H]2C(=O)N[C@@H](Cc3ccccc3)C(=O)N2[C@@H]1c1ccc(O)cc1; -0.443
CC1=C([C@H](O)CCc2ccccc2)[C@H](CO)[C@@H]2C(=O)N(Cc3ccccc3)C(=O)[C@@H]2C1; -0.27
C=CCc1cccc([C@@H]2[C@@H](C)CC[C@H]3C(=O)N4[C@H](c5cccc(CC=C)c5)[C@@H](C)CC[C@H]4C(=O)N23)c1; -0.216

Values from PubChem BioAssay
